Origin of values: patent US20120213794A1

biological target: human PCSK9 (proprotein convertase subtilisin-kexin type 9), wild type (UniProt Q8NBP7 31-692); assay: TR-FRET PCSK9-LDLR interaction inhibition
Sequence (Q8NBP7 31-692): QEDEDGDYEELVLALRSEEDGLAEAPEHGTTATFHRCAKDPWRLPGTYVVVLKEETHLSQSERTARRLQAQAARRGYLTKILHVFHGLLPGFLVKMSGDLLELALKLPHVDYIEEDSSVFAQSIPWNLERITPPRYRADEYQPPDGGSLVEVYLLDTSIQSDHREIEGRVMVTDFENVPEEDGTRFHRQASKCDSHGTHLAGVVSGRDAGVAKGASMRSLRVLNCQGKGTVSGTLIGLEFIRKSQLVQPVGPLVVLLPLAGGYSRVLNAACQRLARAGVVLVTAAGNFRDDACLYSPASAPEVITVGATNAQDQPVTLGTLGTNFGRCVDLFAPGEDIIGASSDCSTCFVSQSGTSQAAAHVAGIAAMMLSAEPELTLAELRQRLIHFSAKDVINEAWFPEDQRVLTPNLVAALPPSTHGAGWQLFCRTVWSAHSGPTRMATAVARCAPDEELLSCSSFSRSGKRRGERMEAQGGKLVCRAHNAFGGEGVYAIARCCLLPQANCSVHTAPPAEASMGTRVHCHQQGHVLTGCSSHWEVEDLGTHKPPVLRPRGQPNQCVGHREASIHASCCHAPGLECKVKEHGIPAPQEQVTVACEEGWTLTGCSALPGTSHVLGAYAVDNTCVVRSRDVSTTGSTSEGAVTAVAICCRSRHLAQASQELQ
For each of the binders below, state its pIC50.
One number for each entry, as −log10 of the molar value.

AX210 IgG2 (antibody, V domains shown) VH: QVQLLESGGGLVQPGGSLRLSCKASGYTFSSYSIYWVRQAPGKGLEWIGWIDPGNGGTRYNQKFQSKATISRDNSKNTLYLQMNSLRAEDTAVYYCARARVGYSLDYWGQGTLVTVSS VL: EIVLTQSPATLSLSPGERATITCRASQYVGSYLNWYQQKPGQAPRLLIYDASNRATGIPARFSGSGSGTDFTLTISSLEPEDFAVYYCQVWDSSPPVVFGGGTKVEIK : 8.31
AX212 IgG2 (antibody, V domains shown) VH: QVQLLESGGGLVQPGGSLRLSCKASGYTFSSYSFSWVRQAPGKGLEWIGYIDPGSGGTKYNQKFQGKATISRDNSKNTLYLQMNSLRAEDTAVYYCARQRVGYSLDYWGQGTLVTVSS VL: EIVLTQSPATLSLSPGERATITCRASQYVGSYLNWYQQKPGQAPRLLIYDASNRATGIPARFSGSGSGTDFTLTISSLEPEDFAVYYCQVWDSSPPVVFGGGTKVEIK : 8.41
AX114 IgG2 (antibody, V domains shown) VH: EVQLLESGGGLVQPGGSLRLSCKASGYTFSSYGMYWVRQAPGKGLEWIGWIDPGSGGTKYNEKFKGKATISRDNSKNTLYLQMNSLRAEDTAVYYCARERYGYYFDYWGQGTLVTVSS VL: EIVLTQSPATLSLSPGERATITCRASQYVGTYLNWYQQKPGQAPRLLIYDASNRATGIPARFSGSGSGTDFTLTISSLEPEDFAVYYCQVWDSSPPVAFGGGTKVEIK : 8.23
AX213 IgG2 (antibody, V domains shown) VH: EVQLLESGGGLVQPGGSLRLSCKASGYTFSRYGINWVRQAPGKGLEWIGRIDPGNGGTRYNEKFKGKATISRDNSKNTLYLQMNSLRAEDTAVYYCARANDGYSFDYWGQGTLVTVSS VL: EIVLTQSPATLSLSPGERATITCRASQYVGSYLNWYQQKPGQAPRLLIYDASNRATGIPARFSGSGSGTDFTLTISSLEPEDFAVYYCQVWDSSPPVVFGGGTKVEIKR : 8.31

Let's switch to this binder now.
// lookup pIC50 for AX211 IgG2 (antibody, V domains shown) VH: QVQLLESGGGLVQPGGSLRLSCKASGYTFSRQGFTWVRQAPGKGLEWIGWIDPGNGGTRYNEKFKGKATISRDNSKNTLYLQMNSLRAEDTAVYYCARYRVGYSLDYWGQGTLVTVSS VL: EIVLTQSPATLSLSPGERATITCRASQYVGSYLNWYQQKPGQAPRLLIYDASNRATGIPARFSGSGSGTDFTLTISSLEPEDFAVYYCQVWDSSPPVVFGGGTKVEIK 8.32
